# EC50 values compiled below
# System name: T1, human CLDN18.2 (human)
# T1 construct: also called claudin18.2
# Assay info: FACS, NUGC-4 cells (natural CLDN18.2)

Binder | EC50 (nM)
chimeric antibody xi10D8 (antibody, human IgG1, kappa, V domains shown, Mouse variable regions on human IgG1/kappa; defucosylated, expressed in FUT8-knockout CHO-S cells; also called chimeric 10D8) VH: QIQLAQSGPELKKPGETVKVSCKASGYTFKNYGMNWVKQAPGKGLKWMGWININTGEPRYAEEFKGRIAFSLETSASTAYLLINNLKNEDTATYFCARYGYGNSFPYWGQGTLVTVSA VL: DIVMTQSPSSLTVTVGEKVTMSCKSSQSLLNSGNQRNYLTWYQQKPGQPPKLLIYWASTRESGVPDRFTGSGSGTAFTLTVSSVQAEDLAVYYCQNDYSYPLTFGAGTKLEMKR | 512
chimeric antibody xi22F12 (antibody, human IgG1, kappa, V domains shown, Mouse variable regions on human IgG1/kappa; defucosylated, expressed in FUT8-knockout CHO-S cells; also called chimeric 22F12) VH: QVQLKESGPGLVAPSQSLSITCTVSGFSLTSYGVYWVRQPPGKGLEWLGVIWAGGSTNYNSALMSRLSINKDNSKSQVFLKMNSLQTDDTAMYYCARDRGRLLSMDYWGQGTSVTVSS VL: DIVMTQSPSSLSVSAGEKVTMSCRSSQSLLNSGNQKNYLAWYQQKPGQPPKLLIYGASTRESGVPDRFTGSGSGTDFTLTIGSVQAEDLAVYYCQNVHFFPFTFGSGTKLEIKR | 20
IMAB362 (antibody, human IgG1, kappa, V domains shown, Positive control, prepared in-house; also called Claudiximab; TMAB362 [sic]) VH: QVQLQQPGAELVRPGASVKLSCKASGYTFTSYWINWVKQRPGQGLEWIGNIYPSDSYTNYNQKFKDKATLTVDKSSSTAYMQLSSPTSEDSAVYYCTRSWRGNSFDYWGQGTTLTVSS VL: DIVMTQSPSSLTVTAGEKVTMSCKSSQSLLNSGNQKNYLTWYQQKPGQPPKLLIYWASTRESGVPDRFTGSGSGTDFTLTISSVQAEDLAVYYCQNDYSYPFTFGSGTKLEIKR | 1450
chimeric antibody xi28G3 (antibody, human IgG1, kappa, V domains shown, Mouse variable regions on human IgG1/kappa; defucosylated, expressed in FUT8-knockout CHO-S cells; also called chimeric 28G3) VH: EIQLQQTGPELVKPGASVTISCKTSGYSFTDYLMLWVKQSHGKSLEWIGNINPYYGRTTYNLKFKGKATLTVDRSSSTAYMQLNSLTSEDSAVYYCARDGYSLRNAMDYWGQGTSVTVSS VL: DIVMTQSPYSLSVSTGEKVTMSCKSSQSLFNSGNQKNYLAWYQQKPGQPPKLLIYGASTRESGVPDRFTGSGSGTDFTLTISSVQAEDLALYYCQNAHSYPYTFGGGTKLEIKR | 21.2
